Sourced from patent US20060069132A1

- Tested on: large crabgrass
- assay_text: Test B pre-/postemergence herbicide test
- Assay type: in vivo, Digitaria sanguinalis
- experimental_setup: 500 g ai/ha; visual rating, 0 = no effect, 100 = complete control; preemergence
metric_name: Plant response rating, Crabgrass, Large

molecule=C#CCNC(=O)c1cncc(NC(=O)c2cc(C(C)(C)C)nn2CC)n1 reported_value=20
molecule=CCn1nc(C(C)(C)C)cc1C(=O)Nc1ccnc(C(=O)N(C)C)c1 reported_value=100
molecule="CCN(CC)C(=O)c1ccc(F)c(NC(=O)C2CC(C(C)(C)C)=NN2CC)c1 (racemic)" reported_value=70
molecule=CCc1nn(C(C)(C)C)cc1C(=O)Nc1cc(C(=O)N(C)CC)ccc1F reported_value=100
